// GSK3β (Homo sapiens) pIC50 records
pIC50: −log10 of the molar value.
property: pIC50

I: Cc1ccc2c(n1)CC(CN1CC(C)(C)Cn3c1nc(-c1ccncc1)cc3=O)C2 (racemic) [compound 4 of table 1A]
II: CC1CCn2c(nc(-c3ccncn3)cc2=O)N1CC1COc2ccccc2O1 (centres unmarked) [compound 8 of table 2B]
Of I and II , which one carries the higher reported pIC50? Let me know the label of the one you choose.
I
